Molecular target: Protein ENL (Homo sapiens)
Conditions: dose 111.0 nM, time 45.0 min
inhibition overview
Kindly answer with a numeric value in %, unit omitted.

Illustrative cases are given below, each with its answer.
[
  {
    "smiles": "C[C@H]1CCCN1Cc1nc2cc(NC(=O)c3ccc4c(cnn4CCNC(=O)Nc4cccc(F)c4)c3)ccc2[nH]1",
    "recordedNumber": 67.6
  },
  {
    "smiles": "C[C@H]1CCCN1Cc1nc2cc(NC(=O)c3ccc4c5ccccc5c(=O)n(C)c4c3)ccc2[nH]1",
    "recordedNumber": 99.2
  }
]

Alright, here's another compound for you.
Looking for the measured inhibition of C[C@H]1CCCN1Cc1nc2cc(NC(=O)c3ccc4c5ccccc5n(C)c4c3)ccc2[nH]1 , can you help?
85.4
